The measured values listed here are drawn from patent US20110294810A1.

- ASSAY: Measurement of logP values by HPLC on reversed phase columns (EEC directive 79/831 Annex V.A8)
- Format: physicochemical
- MEASUREMENT SETUP: pH 2.7
# if value of log p reaches 3, tag Fulfilled; if it stays below, tag Not fulfilled

{"MOL": "CC(=O)OCc1cc(-c2ccnc(N(C(C)=O)c3cccc(Cl)c3)n2)ccn1", "CLASS NAME": "Not fulfilled"}
{"MOL": "COCCOCCSCc1cc(-c2ccnc(Nc3cccc(Cl)c3)n2)ccn1", "CLASS NAME": "Fulfilled"}
{"MOL": "Clc1cccc(Nc2nccc(-c3ccnc(CI)c3)n2)c1", "CLASS NAME": "Fulfilled"}
{"MOL": "CCCCSCc1cc(-c2ccnc(Nc3cccc(Cl)c3)n2)ccn1", "CLASS NAME": "Fulfilled"}
{"MOL": "CN(C)Cc1cc(-c2ccnc(Nc3cccc(Cl)c3)n2)ccn1", "CLASS NAME": "Not fulfilled"}

====

- ASSAY: Measurement of logP values by HPLC on reversed phase columns (EEC directive 79/831 Annex V.A8)
- Assay type: physicochemical
- MEASUREMENT SETUP: pH 2.7
MEASURE: log p

{"COMPOUND": "COCC(=O)NC(C)c1cc(-c2ccnc(N(C(=O)COC)c3cccc(Cl)c3)n2)ccn1 (stereo not drawn)", "MEASURE": "log p", "RECORDED MEASUREMENT": 2.11}
{"COMPOUND": "CN1CCN(Cc2cc(-c3ccnc(Nc4cccc(Cl)c4)n3)ccn2)CC1", "MEASURE": "log p", "RECORDED MEASUREMENT": 1.45}
{"COMPOUND": "Clc1cccc(Nc2nccc(-c3ccnc(CN4CCOCC4)c3)n2)c1", "MEASURE": "log p", "RECORDED MEASUREMENT": 1.6}
{"COMPOUND": "CC(C)C(=O)NCc1cc(-c2ccnc(Nc3cccc(Cl)c3)n2)ccn1", "MEASURE": "log p", "RECORDED MEASUREMENT": 2.52}
{"COMPOUND": "O=C(NCc1cc(-c2ccnc(Nc3cccc(Cl)c3)n2)ccn1)C1CC1", "MEASURE": "log p", "RECORDED MEASUREMENT": 2.39}
{"COMPOUND": "CC(C)OC(=O)NCc1cc(-c2ncnc(Nc3cccc(Cl)c3)n2)ccn1", "MEASURE": "log p", "RECORDED MEASUREMENT": 2.94}
{"COMPOUND": "CCCC(=O)NCc1cc(-c2ccnc(Nc3cccc(Cl)c3)n2)ccn1", "MEASURE": "log p", "RECORDED MEASUREMENT": 2.51}
{"COMPOUND": "CCSCCNCc1cc(-c2ccnc(Nc3cccc(Cl)c3)n2)ccn1", "MEASURE": "log p", "RECORDED MEASUREMENT": 2.1}
{"COMPOUND": "Clc1cccc(Nc2nccc(-c3ccnc(CN4CC=CC4)c3)n2)c1", "MEASURE": "log p", "RECORDED MEASUREMENT": 1.67}

====

- ASSAY: Measurement of logP values by HPLC on reversed phase columns (EEC directive 79/831 Annex V.A8)
- Type: physicochemical
- MEASUREMENT SETUP: reversed phase HPLC column; HPLC on reversed phase columns; usual method: LC-MS at pH 2.7, 0.1% formic acid in water / acetonitrile, linear gradient 10% to 95% acetonitrile; read-out: logP
Here the recorded chromatographic logP is given for each entry.

{"COMPOUND": "CC(=O)OC(C)c1cc(-c2ccnc(Nc3cccc(Cl)c3)n2)ccn1 (centres unmarked)", "chromatographic logP": 3.33}
{"COMPOUND": "CCC(C)CNC(C)c1cc(-c2ccnc(Nc3cccc(Cl)c3)n2)ccn1 (centres unmarked)", "chromatographic logP": 2.13}

====

- ASSAY: Measurement of logP values by HPLC on reversed phase columns (EEC directive 79/831 Annex V.A8)
- Assay type: physicochemical
- MEASUREMENT SETUP: reversed phase HPLC column; LC-MS at pH 7.8, 0.001 molar ammonium hydrogen carbonate in water, gradient 10% to 95% acetonitrile; read-out: log p [c]
MEASURE: chromatographic logP

{"COMPOUND": "CC(N)c1cc(-c2ncnc(Nc3cccc(Cl)c3)n2)ccn1 (centres unmarked)", "RECORDED MEASUREMENT": 1.81}
{"COMPOUND": "NCc1cc(-c2ncnc(Nc3cccc(Cl)c3)n2)ccn1", "RECORDED MEASUREMENT": 1.74}

====

- ASSAY: Measurement of logP values by HPLC on reversed phase columns (EEC directive 79/831 Annex V.A8)
- Type: physicochemical
- MEASUREMENT SETUP: pH 2.7

{"COMPOUND": "CCCC(=O)OCc1cc(-c2ccnc(Nc3cccc(Cl)c3)n2)ccn1 [Example A20]", "log p": 3.83}
{"COMPOUND": "CC(C)CC(=O)OCc1cc(-c2ccnc(N(C(=O)CC(C)C)c3cccc(Cl)c3)n2)ccn1 [Example A27]", "log p": 4.56}
{"COMPOUND": "CCOC(=O)CCSCc1cc(-c2ccnc(Nc3cccc(Cl)c3)n2)ccn1 [Example A85]", "log p": 3.67}
{"COMPOUND": "COCC(=S)NCc1cc(-c2ccnc(Nc3cccc(Cl)c3)n2)ccn1 [Compound A16]", "log p": 3.29}
{"COMPOUND": "CCCCCC(=O)OCc1cc(-c2ccnc(Nc3cccc(Cl)c3)n2)ccn1 [Compound A19]", "log p": 4.73}
{"COMPOUND": "CCCSCc1cc(-c2ccnc(Nc3cccc(Cl)c3)n2)ccn1 [Compound A70]", "log p": 3.48}
{"COMPOUND": "CC(C)CCSCc1cc(-c2ccnc(Nc3cccc(Cl)c3)n2)ccn1 [Example A86]", "log p": 4.97}
{"COMPOUND": "CC(NC(=O)C1CC1)c1cc(-c2ccnc(N(C(=O)C3CC3)c3cccc(Cl)c3)n2)ccn1 (stereo not drawn) [Compound A92]", "log p": 2.49}
{"COMPOUND": "CC(C)CC(=O)NCc1cc(-c2ccnc(Nc3cccc(Cl)c3)n2)ccn1 [Compound A9]", "log p": 2.84}

====

- ASSAY: Measurement of logP values by HPLC on reversed phase columns (EEC directive 79/831 Annex V.A8)
- Format: physicochemical
- MEASUREMENT SETUP: reversed phase HPLC column; LC-MS at pH 2.7, 0.1% formic acid in water / acetonitrile, gradient 10% to 95% acetonitrile; read-out: log p
MEASURE: chromatographic logP

{"MOL": "CCOC(=O)NCc1cc(-c2ncnc(Nc3cccc(Cl)c3)n2)ccn1", "MEASURE": "chromatographic logP", "RECORDED MEASUREMENT": 2.64}

====

- ASSAY: Measurement of logP values by HPLC on reversed phase columns (EEC directive 79/831 Annex V.A8)
- Format: physicochemical
- MEASUREMENT SETUP: HPLC on reversed phase columns; usually LC-MS at pH 2.7 with 0.1% formic acid in water and acetonitrile, linear gradient 10% to 95% acetonitrile
This section presents molecules with their documented log p values.

{"MOLECULE": "CN1CCC(N(C)Cc2cc(-c3ccnc(Nc4cccc(Cl)c4)n3)ccn2)CC1", "log p": 1.07}
{"MOLECULE": "CN(Cc1cc(-c2ccnc(Nc3cccc(Cl)c3)n2)ccn1)CC1CC1", "log p": 1.84}
{"MOLECULE": "CC(C)CN(C)Cc1cc(-c2ccnc(Nc3cccc(Cl)c3)n2)ccn1", "log p": 1.93}
{"MOLECULE": "CC1CCCN1Cc1cc(-c2ccnc(Nc3cccc(Cl)c3)n2)ccn1 (stereo not drawn)", "log p": 1.76}
{"MOLECULE": "CCC(C)N(C)Cc1cc(-c2ccnc(Nc3cccc(Cl)c3)n2)ccn1 (stereo not drawn)", "log p": 1.88}
{"MOLECULE": "CSCc1cc(-c2ccnc(Nc3cccc(Cl)c3)n2)ccn1", "log p": 3.17}
{"MOLECULE": "C=CCN(C)Cc1cc(-c2ccnc(Nc3cccc(Cl)c3)n2)ccn1", "log p": 1.75}
{"MOLECULE": "CN(C)C1CCN(Cc2cc(-c3ccnc(Nc4cccc(Cl)c4)n3)ccn2)CC1", "log p": 1.1}
{"MOLECULE": "Clc1cccc(Nc2nccc(-c3ccnc(CN4CCCC4)c3)n2)c1", "log p": 1.7}

====

- ASSAY: Measurement of logP values by HPLC on reversed phase columns (EEC directive 79/831 Annex V.A8)
- Assay type: physicochemical
- MEASUREMENT SETUP: reversed phase HPLC column; HPLC on reversed phase columns; usually LC-MS at pH 2.7 with 0.1% formic acid in water and acetonitrile, linear gradient 10% to 95% acetonitrile; read-out: log p
# key: entry, value: chromatographic logP

{"COMPOUND": "Clc1cccc(Nc2nccc(-c3ccnc(CN4CCCCC4)c3)n2)c1 [Compound A17]", "chromatographic logP": 1.81}
{"COMPOUND": "ClCc1cc(-c2ccnc(Nc3cccc(Cl)c3)n2)ccn1 [Compound A15]", "chromatographic logP": 3.46}
{"COMPOUND": "OCc1cc(-c2ccnc(Nc3cccc(Cl)c3)n2)ccn1 [Compound A14]", "chromatographic logP": 1.91}
{"COMPOUND": "COCc1cc(-c2ccnc(N(C)c3cccc(Cl)c3)n2)ccn1 [Compound A25]", "chromatographic logP": 3.02}
{"COMPOUND": "C=CCC(=O)OCc1cc(-c2ccnc(Nc3cccc(Cl)c3)n2)ccn1 [Compound A37]", "chromatographic logP": 3.64}
{"COMPOUND": "CCSCc1cc(-c2ccnc(Nc3cccc(Cl)c3)n2)ccn1 [Compound A69]", "chromatographic logP": 3.64}
{"COMPOUND": "CCC(C)CNC(=S)NCc1cc(-c2ccnc(Nc3cccc(Cl)c3)n2)ccn1 (centres unmarked) [Compound A6]", "chromatographic logP": 3.59}
{"COMPOUND": "NCc1cc(-c2ccnc(Nc3cccc(Cl)c3)n2)ccn1 [Compound A1]", "chromatographic logP": 1.52}
